B1: POU domain, class 3, transcription factor 4, residues 280 to 335; numbered along this chain, P49335 (parent)
chain: KKRTSIEVSVKGVLETHFLKCPKPAAQEISSLADSLQLEKEVVRVWFCNRRQKEKR

Variants of: B1
Test: abundance fitness (aPCA) (normalised: wild type 0, dead -1); higher = more abundant; growth selection in yeast, the domain comes from the species named
Details: Homo sapiens
Assign 1 whenever abundance fitness does not fall below -0.3; assign 0 whenever it does.

- MUTANT LABEL: "R51A"
  CLASS NAME: 0
- MUTANT LABEL: "E41A"
  CLASS NAME: 0
- MUTANT LABEL: "Q52P"
  CLASS NAME: 0
- MUTANT LABEL: "K23H"
  CLASS NAME: 1
- MUTANT LABEL: "K53G"
  CLASS NAME: 0
- MUTANT LABEL: "V42D"
  CLASS NAME: 1
- MUTANT LABEL: "S30C"
  CLASS NAME: 0
- MUTANT LABEL: "G12R"
  CLASS NAME: 1
- MUTANT LABEL: "Q37N"
  CLASS NAME: 1
- MUTANT LABEL: "S9H"
  CLASS NAME: 1
- MUTANT LABEL: "K53F"
  CLASS NAME: 1
- MUTANT LABEL: "V8P"
  CLASS NAME: 1
- MUTANT LABEL: "K23N"
  CLASS NAME: 1
- MUTANT LABEL: "V10K"
  CLASS NAME: 1
- MUTANT LABEL: "Q52V"
  CLASS NAME: 0
- MUTANT LABEL: "K11H"
  CLASS NAME: 1
- MUTANT LABEL: "C48V"
  CLASS NAME: 1
- MUTANT LABEL: "Q52T"
  CLASS NAME: 0
- MUTANT LABEL: "K40N"
  CLASS NAME: 1
- MUTANT LABEL: "K1S"
  CLASS NAME: 1
- MUTANT LABEL: "I6W"
  CLASS NAME: 1
- MUTANT LABEL: "L19K"
  CLASS NAME: 0
- MUTANT LABEL: "K40V"
  CLASS NAME: 1
- MUTANT LABEL: "G12S"
  CLASS NAME: 1
- MUTANT LABEL: "A33W"
  CLASS NAME: 0
- MUTANT LABEL: "K23C"
  CLASS NAME: 1
- MUTANT LABEL: "S9L"
  CLASS NAME: 1
- MUTANT LABEL: "A25C"
  CLASS NAME: 1
- MUTANT LABEL: "R56T"
  CLASS NAME: 1
- MUTANT LABEL: "K55T"
  CLASS NAME: 0
- MUTANT LABEL: "S5G"
  CLASS NAME: 1

Values from the Human Domainome abundance scans (Beltran et al. 2025)
